Experiment: Selectivity index, ratio of cytotoxicity for pig LLC-PK1 cells to IC50 for Cryptococcus neoformans ATCC 90113
Type: toxicity, cell-based
Details: read-out: Selectivity Index
Recorded selectivity ratio for the following compounds

Worked examples, 2 compounds total:
> print(dat)
                                   molecule  reported.measurement
1  Cc1ccc(-c2nc(C[C@H](NC(=O)[C@@H](N)CCCNC(=N)N)C(=O)N[C@@H](CCCNC(=N)N)C(=O)NCc3ccccc3)c[nH]2)cc1                > 28.6
2  COC(=O)[C@H](CCCNC(=N)N)NC(=O)[C@H](Cc1c[nH]c(-c2ccc(-c3ccccc3)cc2)n1)NC(=O)[C@H](CCCNC(=N)N)NC(=O)OC(C)(C)C                > 12.5

Please find the next compound below.
The compound listed as CC(C)(C)c1ccc(-c2nc(C[C@H](NC(=O)[C@@H](N)CCCNC(=N)N)C(=O)N[C@@H](CCCNC(=N)N)C(=O)NCc3ccccc3)c[nH]2)cc1 has a reported selectivity ratio of > 143
